- assay text: NCI Yeast Anticancer Drug Screen. Data for the cln2 rad14 strain (AID 165)
- run conditions: S. cerevisiae cln2 rad14 strain, at 50.0 µM
The panel holds about 79,000 compounds, 15% with a hit somewhere; the sample as a whole holds those more often. Calls of active or inactive are those of the source. No stated cut-off is given here; in the data, active means growth inhibition above about 70%; inactive means the rest.
Choose one outcome from this list and give only that: active, inactive

IN: Can you look up the reported call for Cn1nnn2c(-c3ccccc3)nnc12 for me?
OUT: inactive

IN: Next compound: Cc1nnsc1-c1nc2ccccc2[nH]1
OUT: inactive

IN: Next compound: NC(CCSCC(F)F)C(=O)O (stereo not drawn)
OUT: inactive

IN: Next compound: CCCCCCCCCCNCC(=O)O
OUT: inactive

IN: Next compound: N#CC(=C1C=CC(=NOC(=O)c2ccccc2)C=C1)c1ccccc1
OUT: inactive

IN: Next compound: CC(C)CCOC(=O)C(C)(O)C(Cl)c1ccccc1 (stereo not drawn)
OUT: inactive

IN: Next compound: Cc1ccc(SCC(CF)OC(C)n2cnc3c(Cl)nc(N)nc32)cc1 (stereo not drawn)
OUT: inactive

IN: Next compound: CSCCC(C(=O)O)N(C)C (stereo not drawn)
OUT: inactive

IN: Next compound: CCCCCCCC(=O)N(CCCCC)CCCCC
OUT: active

IN: Next compound: O=c1nc(/C=C/c2ccccc2Cl)cc2n1CCN2CCO
OUT: inactive

IN: Next compound: NC(N)=NC(CC(=O)O)c1ccccc1 (stereo not drawn)
OUT: inactive

IN: Next compound: Cc1ccc(SCc2cn(C3OC(CO)C(O)C3O)c(=O)[nH]c2=O)cc1 (stereo not drawn)
OUT: inactive

IN: Next compound: CSc1ccc(NC(=O)Nc2cccc(F)c2)cc1
OUT: inactive

IN: Next compound: Cc1cc(C)c(NC(N)=S)cc1C
OUT: inactive

IN: Next compound: O=C(O)CCn1cnc2c(=S)nc[nH]c21
OUT: inactive

IN: Next compound: CC(=O)N/C(=C/c1ccccc1)C(=O)NC(C)(C)C
OUT: inactive

IN: Next compound: CC[N+](C)(CC)c1cccc(OC(=O)Nc2ccc(OC)cc2)c1
OUT: inactive

IN: Next compound: Cc1ncc([N+](=O)[O-])n1Cc1nncs1
OUT: inactive

IN: Next compound: CC(=O)OC/C=C/CN(C)C
OUT: inactive

IN: Next compound: COc1ccc2c(c1)OC(C)(C)C(c1ccccc1)=C2c1ccc2c(c1)NCCO2
OUT: inactive

IN: Next compound: CC(C)=CC(=O)C/C(=N\NC(N)=S)C(=O)Nc1ccc(Cl)cc1
OUT: inactive

IN: Next compound: O=P12N(CCN1c1ccccc1)CCN2c1ccccc1
OUT: inactive

IN: Next compound: CC(=O)SCCCCl
OUT: inactive
